Listed next: entries and their corresponding log10 of IC50.
- target-system: Human COX-2 (Homo sapiens, UniProt P35354)
- Construct: A 2.0 kb fragment containing the coding region of either human or murine COX-1 or human or murine COX-2; made in house; host or cells: SF9 insect cells (baculovirus, transfer vector pVL1393)
- Sequence (P35354 18-604): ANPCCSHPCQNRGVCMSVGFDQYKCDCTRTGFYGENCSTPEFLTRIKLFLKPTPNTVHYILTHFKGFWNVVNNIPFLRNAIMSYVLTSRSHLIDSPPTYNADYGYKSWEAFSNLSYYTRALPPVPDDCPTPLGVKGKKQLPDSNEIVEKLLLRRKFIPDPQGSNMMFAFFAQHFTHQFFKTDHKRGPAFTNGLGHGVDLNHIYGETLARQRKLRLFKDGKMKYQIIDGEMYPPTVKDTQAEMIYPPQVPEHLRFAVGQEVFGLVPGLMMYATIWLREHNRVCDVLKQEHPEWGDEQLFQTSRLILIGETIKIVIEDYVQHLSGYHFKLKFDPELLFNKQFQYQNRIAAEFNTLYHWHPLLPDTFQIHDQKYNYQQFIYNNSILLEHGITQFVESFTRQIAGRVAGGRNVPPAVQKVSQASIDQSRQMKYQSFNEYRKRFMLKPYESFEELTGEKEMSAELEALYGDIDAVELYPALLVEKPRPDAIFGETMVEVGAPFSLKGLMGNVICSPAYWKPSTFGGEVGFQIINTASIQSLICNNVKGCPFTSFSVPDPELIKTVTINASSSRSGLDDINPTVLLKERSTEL
- protocol-details: Assay for COX-1 and COX-2 activity (PGE2 ELISA, recombinant enzyme), COX-2
- Type: biochemical
- run-conditions: Table I; pre-incubated 10-20 minutes, arachidonic acid 10 μM, stopped after ten minutes, pH 8.0
log10 IC50, nM

Example cases with answers are listed next.
[[record]]
compound = "Cc1onc(-c2ccc(F)cc2)c1-c1ccc(S(N)(=O)=O)c(F)c1 [Example 22]"
reading = 1.18

[[record]]
compound = "CS(=O)(=O)c1ccc(-c2cc(C(F)F)nn2-c2cccc(C(F)(F)F)c2)cc1F [Example 21]"
reading = 2.74

[[record]]
compound = "CS(=O)(=O)c1ccc(-c2cc(C(F)F)nn2-c2ccc(F)cc2)cc1F [Example 18]"
reading = 2.51

[[record]]
compound = "NS(=O)(=O)c1ccc(-n2nc(C(F)(F)F)cc2-c2ccc(F)cc2)cc1F [Example 8]"
reading = 1.30


Looking up COc1ccc(-c2cc(C(F)F)nn2-c2ccc(S(N)(=O)=O)c(F)c2)cc1F [Example 10] , I see its log10 of IC50 listed as 2.04

Looking up Cc1ccc(-n2nc(C(F)F)cc2-c2ccc(S(C)(=O)=O)c(F)c2)cc1Cl [Example 20] , I see its log10 of IC50 listed as 1.56

Looking up Cc1ccc(-n2nc(C(F)(F)F)cc2-c2ccc(S(C)(=O)=O)c(F)c2)cc1Cl [Example 15] , I see its log10 of IC50 listed as 1.20

----------
- target-system: Human COX-1 (Homo sapiens)
- Construct: A 2.0 kb fragment containing the coding region of either human or murine COX-1 or human or murine COX-2; made in house; host or cells: SF9 insect cells (baculovirus, transfer vector pVL1393)
- Sequence (P23219 24-599): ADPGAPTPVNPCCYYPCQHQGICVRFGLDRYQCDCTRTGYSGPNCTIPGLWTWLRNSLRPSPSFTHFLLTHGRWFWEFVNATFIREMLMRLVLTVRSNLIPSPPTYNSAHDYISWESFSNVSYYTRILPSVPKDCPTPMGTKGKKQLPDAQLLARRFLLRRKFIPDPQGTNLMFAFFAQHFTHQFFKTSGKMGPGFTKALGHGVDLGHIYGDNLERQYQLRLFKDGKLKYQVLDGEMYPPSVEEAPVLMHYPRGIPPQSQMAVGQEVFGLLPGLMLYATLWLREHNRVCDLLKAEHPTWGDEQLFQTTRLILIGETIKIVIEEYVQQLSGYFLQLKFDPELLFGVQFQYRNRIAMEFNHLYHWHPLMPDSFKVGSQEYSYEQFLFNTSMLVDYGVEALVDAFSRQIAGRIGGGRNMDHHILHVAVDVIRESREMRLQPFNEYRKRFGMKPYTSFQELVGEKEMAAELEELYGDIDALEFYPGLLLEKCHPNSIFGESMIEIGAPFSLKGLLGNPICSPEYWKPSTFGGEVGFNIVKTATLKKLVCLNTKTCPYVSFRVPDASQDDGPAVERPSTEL
- protocol-details: Assay for COX-1 and COX-2 activity (PGE2 ELISA, recombinant enzyme), COX-1
- Type: biochemical
- run-conditions: Table I; pre-incubated 10-20 minutes, arachidonic acid 10 μM, stopped after ten minutes, pH 8.0
measure-name: IC50

[[record]]
smiles = "COc1ccccc1-c1cc(C(F)(F)F)nn1-c1ccc(S(N)(=O)=O)c(F)c1"
reading = "> 100 µM"

[[record]]
smiles = "COc1ccc(-c2cc(C(F)(F)F)nn2-c2ccc(S(N)(=O)=O)c(F)c2)cc1F"
reading = "45.6 µM"

[[record]]
smiles = "Cc1onc(-c2ccc(F)cc2)c1-c1ccc(S(N)(=O)=O)c(F)c1"
reading = "> 100 µM"

[[record]]
smiles = "CS(=O)(=O)c1ccc(-c2cc(C(F)(F)F)nn2-c2ccc(F)cc2)cc1F"
reading = "> 100 µM"

[[record]]
smiles = "CS(=O)(=O)c1ccc(C2=C(c3ccccc3)C(=O)OC2)cc1F"
reading = "> 100 µM"

[[record]]
smiles = "Cc1cccc(-n2nc(C(F)(F)F)cc2-c2ccc(S(C)(=O)=O)c(F)c2)c1"
reading = "> 100 µM"

[[record]]
smiles = "NS(=O)(=O)c1ccc(-n2nc(C(F)(F)F)cc2-c2ccc(Cl)cc2)cc1F"
reading = "45.9 µM"

[[record]]
smiles = "NS(=O)(=O)c1ccc(-n2nc(C(F)(F)F)cc2-c2ccc(F)cc2)cc1F"
reading = "56.8 µM"

[[record]]
smiles = "CS(=O)(=O)c1ccc(-c2cc(C(F)F)nn2C2CCCCC2)cc1F"
reading = "> 100 µM"

[[record]]
smiles = "NS(=O)(=O)c1ccc(-c2cscc2-c2ccccc2)cc1F"
reading = "37.9 µM"


Here is another compound to look at.
Looking up `Cc1ccc(-n2nc(C(F)F)cc2-c2ccc(S(C)(=O)=O)c(F)c2)cc1Cl` , I see its IC50 listed as > 100 µM
